- assay_system: TNIK (Homo sapiens, UniProt Q9UKE5)
- Sequence (Q9UKE5 whole entry): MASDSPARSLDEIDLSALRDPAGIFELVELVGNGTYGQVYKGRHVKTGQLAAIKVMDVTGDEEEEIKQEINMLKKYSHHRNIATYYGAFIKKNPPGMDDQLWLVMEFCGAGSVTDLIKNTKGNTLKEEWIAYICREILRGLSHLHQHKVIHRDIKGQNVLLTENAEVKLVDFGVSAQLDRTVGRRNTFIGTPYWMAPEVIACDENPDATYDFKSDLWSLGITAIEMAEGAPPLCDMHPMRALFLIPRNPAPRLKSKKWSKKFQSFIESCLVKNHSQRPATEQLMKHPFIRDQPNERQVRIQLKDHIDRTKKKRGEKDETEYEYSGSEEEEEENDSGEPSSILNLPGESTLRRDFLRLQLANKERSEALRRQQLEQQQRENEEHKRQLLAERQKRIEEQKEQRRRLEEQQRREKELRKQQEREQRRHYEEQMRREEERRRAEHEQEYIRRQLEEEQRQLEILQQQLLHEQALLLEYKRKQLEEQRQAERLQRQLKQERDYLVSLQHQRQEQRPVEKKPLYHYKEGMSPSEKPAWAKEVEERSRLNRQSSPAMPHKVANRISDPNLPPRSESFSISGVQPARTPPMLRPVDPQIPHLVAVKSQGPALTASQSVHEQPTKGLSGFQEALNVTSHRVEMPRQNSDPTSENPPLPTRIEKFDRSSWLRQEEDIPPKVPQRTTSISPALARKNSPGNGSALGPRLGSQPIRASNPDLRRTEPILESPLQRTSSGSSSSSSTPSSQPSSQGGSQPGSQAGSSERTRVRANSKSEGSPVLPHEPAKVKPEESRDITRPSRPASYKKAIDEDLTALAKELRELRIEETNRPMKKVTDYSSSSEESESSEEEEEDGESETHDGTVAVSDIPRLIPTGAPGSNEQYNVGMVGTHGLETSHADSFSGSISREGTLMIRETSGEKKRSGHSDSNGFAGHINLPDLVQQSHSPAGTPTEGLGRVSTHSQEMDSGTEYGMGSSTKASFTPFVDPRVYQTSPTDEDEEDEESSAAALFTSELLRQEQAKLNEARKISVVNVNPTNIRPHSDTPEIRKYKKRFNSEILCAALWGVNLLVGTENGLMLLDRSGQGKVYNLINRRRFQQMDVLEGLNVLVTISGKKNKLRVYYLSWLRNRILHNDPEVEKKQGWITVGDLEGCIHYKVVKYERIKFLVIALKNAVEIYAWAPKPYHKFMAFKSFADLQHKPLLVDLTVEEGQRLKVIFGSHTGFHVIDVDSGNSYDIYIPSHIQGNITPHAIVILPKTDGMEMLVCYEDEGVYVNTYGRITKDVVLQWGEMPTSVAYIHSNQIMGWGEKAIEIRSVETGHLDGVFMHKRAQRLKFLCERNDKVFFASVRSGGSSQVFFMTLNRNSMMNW
measured_attribute: IC50

IN: Recorded IC50 for COc1cccc(Cl)c1Nc1cc2cnn(-c3csc(C(=O)NC4COC4)c3)c2nc1C with TNIK (Homo sapiens, UniProt Q9UKE5), please?
OUT: 200 to 1000 nM

IN: Notebook entry, TNIK (Homo sapiens, UniProt Q9UKE5) assay: IC50 of CNC(=O)c1cc(-n2ncc3cc(Nc4cccc(C)c4Cl)ncc32)cs1 = ?
OUT: < 200 nM

IN: API: value(readout=IC50, system=TNIK (Homo sapiens, UniProt Q9UKE5)) for record CN1CCN=C1NC(=O)c1cc(-n2ncc3nc(Nc4ccccc4Cl)ccc32)cs1
OUT: < 200 nM

====

Consider the following molecules; for each one, report its IC50.
- assay_system: JNK1 (Homo sapiens, UniProt P45983)
- Construct: purchased Reaction Biology Corp
- Sequence (P45983 whole entry): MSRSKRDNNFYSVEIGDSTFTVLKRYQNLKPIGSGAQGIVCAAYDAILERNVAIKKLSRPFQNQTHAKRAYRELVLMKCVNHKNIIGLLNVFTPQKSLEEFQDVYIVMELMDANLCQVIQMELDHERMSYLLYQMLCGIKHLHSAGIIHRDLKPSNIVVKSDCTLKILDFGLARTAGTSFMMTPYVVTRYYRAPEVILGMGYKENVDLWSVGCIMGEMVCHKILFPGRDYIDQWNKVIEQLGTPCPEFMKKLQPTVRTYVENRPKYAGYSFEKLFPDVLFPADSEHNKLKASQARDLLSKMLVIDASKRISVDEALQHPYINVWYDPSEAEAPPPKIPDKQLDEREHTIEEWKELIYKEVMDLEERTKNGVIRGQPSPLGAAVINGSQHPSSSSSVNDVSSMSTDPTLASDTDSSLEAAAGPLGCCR
- experiment_description: HotSpot Kinase Assay, JNK1
- Assay type: biochemical
- condition_set: HotSpot radiometric assay, 33P-ATP
- Procedure: The anti-JNK3 activity of compounds prepared as in the previous examples was evaluated using a Reaction Biology Corp. HotSpot Kinase Assay. […] Activity against related enzymes JNK1 and P38a was further assessed using the same assay.

IN: Reported IC50, molecule CC(C)NC(=O)c1cc(-n2ncc3cc(Nc4ccccc4Cl)ncc32)cs1 : ____
OUT: 200 to 1000 nM

IN: Value lookup for IC50; key = CNC(=O)c1cc(-n2ncc3cc(Nc4c(Cl)cccc4OC)cnc32)cs1
OUT: > 1000 nM

IN: Value lookup for IC50; key = O=C(NC1COC1)c1cc(-n2ncc3cc(Oc4ccccc4Cl)cnc32)cs1
OUT: > 1000 nM

IN: Returns the measured IC50 for the input molecule. Input: COCC(COC)NC(=O)c1cc(-n2ncc3cc(Oc4ccccc4Cl)ncc32)cs1
OUT: > 1000 nM

IN: What IC50 value was documented for this molecule, CC(C)NC(=O)c1cc(-n2ncc3cc(Nc4ccccc4Cl)c(F)cc32)cs1 ?
OUT: < 200 nM

====

List of pIC50 tested on p38a (Homo sapiens, UniProt Q16539).
Sequence (Q16539 whole entry): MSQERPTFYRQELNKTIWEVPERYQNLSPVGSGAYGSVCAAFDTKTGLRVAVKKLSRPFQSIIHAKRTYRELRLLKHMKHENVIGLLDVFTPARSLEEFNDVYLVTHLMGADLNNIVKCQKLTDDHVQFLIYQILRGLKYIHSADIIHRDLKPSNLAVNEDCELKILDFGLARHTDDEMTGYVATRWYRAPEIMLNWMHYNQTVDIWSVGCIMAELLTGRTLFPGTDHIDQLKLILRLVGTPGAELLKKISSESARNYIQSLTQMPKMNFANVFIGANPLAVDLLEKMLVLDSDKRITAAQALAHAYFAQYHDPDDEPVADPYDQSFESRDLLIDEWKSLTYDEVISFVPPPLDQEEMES
pIC50: −log10 of the molar value.

IN: Find pIC50 (p38a (Homo sapiens, UniProt Q16539)) for the entry CNC(=O)c1cc(-n2ncc3cc(Nc4ccccc4Cl)c(F)cc32)cs1
OUT: > 6.70

IN: Form entry - test system: p38a (Homo sapiens, UniProt Q16539); read-out: pIC50; compound: COCCNC(=O)c1cc(-n2ncc3cc(Nc4ccccc4Cl)c(F)cc32)cs1
OUT: > 6.70

IN: Form field - read-out: pIC50; system: p38a (Homo sapiens, UniProt Q16539); submitted item: CC(=O)N1CC[C@H](NC(=O)c2cc(-n3ncc4cc(Nc5ccccc5Cl)c(F)cc43)cs2)C1
OUT: > 6.70

IN: Value wanted: pIC50 (p38a (Homo sapiens, UniProt Q16539)) of entry CC(=O)N1CC(NC(=O)c2cc(-n3ncc4cc(Nc5ccccc5Cl)cnc43)cs2)C1
OUT: > 6.70

IN: # query: pIC50 | item Cc1sc(C(=O)NC2COC2)cc1-n1ncc2cc(Nc3ccccc3Cl)cnc21 | system: p38a (Homo sapiens, UniProt Q16539)
OUT: < 6.00

IN: State its pIC50 on p38a (Homo sapiens, UniProt Q16539): O=C(NC1CNC1)c1cc(-n2ncc3nc(Nc4ccccc4Cl)ncc32)cs1
OUT: < 6.00

IN: # returns recorded pIC50 (system: p38a (Homo sapiens, UniProt Q16539)) for CNC(=O)c1cc(-n2ncc3cc(Nc4ccccc4Cl)ncc32)cs1
OUT: 6.00 to 6.70

IN: What is its pIC50 for p38a (Homo sapiens, UniProt Q16539)? Entry: CNC(=O)c1cc(-n2ncc3cc(Nc4c(Cl)cccc4OC)ncc32)cs1
OUT: 6.00 to 6.70

IN: # value lookup — system p38a (Homo sapiens, UniProt Q16539), readout pIC50, item O=C(NCCCF)c1cc(-n2ncc3cc(Oc4ccccc4Cl)cnc32)cs1
OUT: 6.00 to 6.70

IN: pIC50 of [2H]C([2H])([2H])N1CC[C@@H](NC(=O)c2cc(-n3ncc4cc(Oc5ccccc5Cl)ccc43)cs2)C1 on p38a (Homo sapiens, UniProt Q16539)?
OUT: 6.00 to 6.70

IN: // map CNC(=O)c1cc(-n2ncc3cc(N(C)c4ccccc4OC)c(F)cc32)cs1 to recorded pIC50 (system: p38a (Homo sapiens, UniProt Q16539))
OUT: 6.00 to 6.70

IN: Hello, I am looking for reported pIC50 with p38a (Homo sapiens, UniProt Q16539) for COc1cc2c(cnn2-c2csc(C(=O)NC3COC3)c2)cc1Nc1ccccc1Cl . Could you help?
OUT: < 6.00
